- targetDesc: CYP3A4 (Homo sapiens, UniProt P08684)
- Sequence (P08684 whole entry): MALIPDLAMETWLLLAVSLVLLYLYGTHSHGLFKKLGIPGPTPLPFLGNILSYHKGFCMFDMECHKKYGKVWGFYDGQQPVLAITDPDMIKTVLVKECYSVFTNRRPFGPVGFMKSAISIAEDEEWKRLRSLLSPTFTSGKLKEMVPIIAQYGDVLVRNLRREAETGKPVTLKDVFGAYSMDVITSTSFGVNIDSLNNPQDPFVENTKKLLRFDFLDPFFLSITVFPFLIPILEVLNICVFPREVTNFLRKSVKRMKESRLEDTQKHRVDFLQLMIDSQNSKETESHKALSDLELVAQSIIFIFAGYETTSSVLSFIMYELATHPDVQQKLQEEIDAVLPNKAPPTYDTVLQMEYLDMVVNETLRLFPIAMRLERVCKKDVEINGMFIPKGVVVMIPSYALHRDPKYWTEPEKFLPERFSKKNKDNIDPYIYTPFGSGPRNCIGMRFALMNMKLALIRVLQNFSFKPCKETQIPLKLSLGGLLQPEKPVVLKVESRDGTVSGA
- procedureText: in vitro
- runParameters: both, microsomes
property: inhibition at 10 min, 1 µM (%)
One number for each entry, in %.

Data request, read-out inhibition at 10 min, 1 µM, for O=C(O)C(Oc1cccc(C(F)(F)F)c1)c1ccc(Cl)cc1 (single isomer, unassigned; (-)) [(−) halofenic acid]
0

###

- targetDesc: CYP2C9 (Homo sapiens, UniProt P11712)
- Sequence (P11712 whole entry): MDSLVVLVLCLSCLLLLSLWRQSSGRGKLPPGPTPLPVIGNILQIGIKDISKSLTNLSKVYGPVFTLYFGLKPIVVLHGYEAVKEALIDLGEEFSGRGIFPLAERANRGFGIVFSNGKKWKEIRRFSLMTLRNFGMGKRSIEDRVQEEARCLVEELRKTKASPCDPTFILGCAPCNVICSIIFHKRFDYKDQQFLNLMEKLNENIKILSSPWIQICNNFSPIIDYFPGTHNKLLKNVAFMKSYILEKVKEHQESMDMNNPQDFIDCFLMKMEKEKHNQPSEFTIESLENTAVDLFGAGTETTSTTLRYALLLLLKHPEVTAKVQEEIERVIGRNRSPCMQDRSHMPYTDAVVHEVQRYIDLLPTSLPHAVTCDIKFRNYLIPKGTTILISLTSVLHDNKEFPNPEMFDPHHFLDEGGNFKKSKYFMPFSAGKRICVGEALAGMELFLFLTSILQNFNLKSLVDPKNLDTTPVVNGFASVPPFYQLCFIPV
- procedureText: in vitro
- runParameters: both, microsomes
property: inhibition at 40 min, 3.3 μM

Data request, read-out inhibition at 40 min, 3.3 μM, for O=C(O)C(Oc1cccc(C(F)(F)F)c1)c1ccc(Cl)cc1 (single isomer, unassigned; (-)) [(−) halofenic acid]
21%

###

- Test system: C57BL/6J ob/ob mice
- procedureText: Glucose lowering activity of halofenate analogs in ob/ob mice (Example 12)
- Format: in vivo
- runParameters: 125 mg/kg oral once a day
Hi there, I'd appreciate the recorded 30 hours Glucose for every entry that follows.
One number for each entry, in mg/dL.

As a guide, the following entries are already answered.
- molecule: "CN(C)C(=O)COC(=O)C(Oc1cccc(C(F)(F)F)c1)c1ccc(Cl)cc1 (racemic) [(±)Analog 38]"
  property: "30 hours Glucose"
  observedResult: 245.6
- molecule: "CCCCOC(=O)C(Oc1cccc(C(F)(F)F)c1)c1ccc(Cl)cc1 (racemic) [(±)Analog 33]"
  property: "30 hours Glucose"
  observedResult: 298.0
- molecule: "CC(=O)NCCOC(=O)C(Oc1cccc(C(F)(F)F)c1)c1ccc(Br)cc1 (racemic) [(±)Analog 29]"
  property: "30 hours Glucose"
  observedResult: 237.4

Hey, quick one: what's 30 hours Glucose for each of these?
1. O=C(NCCOC(=O)C(Oc1cccc(C(F)(F)F)c1)c1ccc(Cl)cc1)c1ccccc1 (racemic) [(±)Analog 36]
2. NC(=O)COC(=O)C(Oc1cccc(C(F)(F)F)c1)c1ccc(Cl)cc1 (racemic) [(±)Analog 37]
3. CC(=O)NCCOC(=O)C(Oc1cccc(C(F)(F)F)c1)c1ccc(F)cc1 (racemic) [(±)Analog 14]

249.7
312.5
267.0

###

- targetDesc: CYP2D6 (Homo sapiens, UniProt P10635)
- Sequence (P10635 whole entry): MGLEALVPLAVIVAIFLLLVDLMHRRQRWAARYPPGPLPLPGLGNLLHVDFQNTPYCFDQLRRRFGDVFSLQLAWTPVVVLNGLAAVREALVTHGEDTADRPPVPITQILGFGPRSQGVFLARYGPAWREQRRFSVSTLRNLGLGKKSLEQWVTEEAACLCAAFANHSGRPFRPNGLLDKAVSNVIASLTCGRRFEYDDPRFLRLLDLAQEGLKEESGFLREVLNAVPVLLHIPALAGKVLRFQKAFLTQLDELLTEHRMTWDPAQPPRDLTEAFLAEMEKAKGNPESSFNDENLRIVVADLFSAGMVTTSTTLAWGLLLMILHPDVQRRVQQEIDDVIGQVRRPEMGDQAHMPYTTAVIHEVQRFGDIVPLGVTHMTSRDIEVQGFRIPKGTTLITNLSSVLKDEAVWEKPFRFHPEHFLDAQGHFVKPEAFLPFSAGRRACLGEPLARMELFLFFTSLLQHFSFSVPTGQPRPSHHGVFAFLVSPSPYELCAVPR
- procedureText: in vitro
- runParameters: both, microsomes
property: inhibition at 15 min, 1 μM (%)
Answers are plain numbers, in %.

Data request, read-out inhibition at 15 min, 1 μM, for O=C(O)C(Oc1cccc(C(F)(F)F)c1)c1ccc(Cl)cc1 (single isomer, unassigned; (-)) [(−) halofenic acid]
1

###

- procedureText: Plasma hydrolysis of (−) CPTA prodrug esters in human plasma (Example 21)
- Assay type: in vitro ADME
- runParameters: human plasma (heparinized, pooled), 125 or 250 μM, 37° C., hydrolysis to (−) CPTA; read-out: Plasma T1/2 (converted)
property: half-life

As a guide, the following entries are already answered.
- compound: "O=C(OCCO)C(Oc1cccc(C(F)(F)F)c1)c1ccc(Cl)cc1 (single isomer, unassigned)"
  half-life: "< 2 h"
- compound: "O=C(NCCOC(=O)C(Oc1cccc(C(F)(F)F)c1)c1ccc(Cl)cc1)c1cccs1 (single isomer, unassigned)"
  half-life: "< 1 h"

Please look at the following compound next.
Data request, read-out half-life, for CCOC(=O)NCCOC(=O)C(Oc1cccc(C(F)(F)F)c1)c1ccc(Cl)cc1 (single isomer, unassigned; (-))
< 1 h
